Catalogue of activation readings, one per entry.
Target: CCR2 (Homo sapiens)
Construct: expressed in transfected cells
Sequence (P41597 1-360 isoform P41597-2): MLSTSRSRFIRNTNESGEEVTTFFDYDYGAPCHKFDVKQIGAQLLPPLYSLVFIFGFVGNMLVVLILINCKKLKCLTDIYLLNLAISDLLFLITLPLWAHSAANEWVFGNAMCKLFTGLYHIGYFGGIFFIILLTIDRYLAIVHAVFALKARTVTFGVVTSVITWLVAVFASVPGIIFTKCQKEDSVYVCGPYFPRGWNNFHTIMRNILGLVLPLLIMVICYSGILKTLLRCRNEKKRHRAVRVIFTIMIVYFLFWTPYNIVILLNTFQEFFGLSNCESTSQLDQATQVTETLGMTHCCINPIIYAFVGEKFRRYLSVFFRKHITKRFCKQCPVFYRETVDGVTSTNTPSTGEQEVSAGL
Assay: Figure S2a opioid peptide screen on chemokine receptors
Assay type: cell-based
Design: dose or concentration left out as unconfirmed
Conditions: replicate 3, read-out: CCR2 activity, ctrl+ = 100
Starred links: 1 amine or outer side, 2 acyl side, 3 side chain; linkers in the order of their positions; H or OH if unused. Non-standard residues stand in square brackets, D forms with d. Residues, ends and D or L forms follow the SMILES beside them. X1 = N[C@@H](Cc1ccccc1)CN(CC(=O)[*:2])[*:1]
Record the value in %, omitting the unit from your answer.

Sample records with activation:
C[C@H](NC(=O)CNC(=O)[C@@H](NC(=O)[C@H](Cc1ccccc1)NC(=O)CNC(=O)CNC[C@@H](N)Cc1ccccc1)[C@@H](C)O)C(=O)N[C@@H](CCCNC(=N)N)C(=O)N[C@@H](CCCCN)C(=O)N[C@@H](CO)C(=O)N[C@@H](C)C(=O)N[C@@H](CCCNC(=N)N)C(=O)N[C@@H](CCCCN)C(N)=O [FG Nociceptin 1-13] (H-[X1]GFTGARKSARK-NH2) ... 0.99
C[C@H](NC(=O)CNC(=O)[C@@H](NC(=O)[C@H](Cc1ccccc1)NC(=O)CNC(=O)CNC(=O)[C@@H](N)Cc1ccccc1)[C@@H](C)O)C(=O)N[C@@H](CCCNC(=N)N)C(=O)N[C@@H](CCCCN)C(=O)N[C@@H](CO)C(=O)N[C@@H](C)C(=O)N[C@@H](CCCNC(=N)N)C(=O)N[C@@H](CCCCN)C(N)=O [Nociceptin 1-13] ... 1.52
CSCC[C@H](NC(=O)[C@H](Cc1ccccc1)NC(=O)CNC(=O)CNC(=O)[C@@H](N)Cc1ccc(O)cc1)C(=O)N[C@@H](CCCNC(=N)N)C(=O)N[C@@H](CCCNC(=N)N)C(=O)N[C@H](C(N)=O)C(C)C [Adrenorphin] ... -1.1
CC[C@H](C)[C@H](NC(=O)[C@H](CCCNC(=N)N)NC(=O)[C@H](CCCNC(=N)N)NC(=O)[C@H](CC(C)C)NC(=O)[C@H](Cc1ccccc1)NC(=O)CNC(=O)CNC(=O)[C@@H](N)Cc1ccc(O)cc1)C(=O)N[C@@H](CCCNC(=N)N)C(=O)N1CCC[C@H]1C(=O)N[C@@H](CCCCN)C(=O)N[C@@H](CC(C)C)C(=O)N[C@@H](CCCCN)C(=O)N[C@@H](Cc1c[nH]c2ccccc12)C(=O)N[C@@H](CC(=O)O)C(=O)N[C@@H](CC(N)=O)C(=O)N[C@@H](CCC(N)=O)C(=O)O [Dynorphin A] ... -0.105

Next item in the queue.
For reference, reported activation for CC(C)C[C@H](NC(=O)[C@H](Cc1ccccc1)NC(=O)CNC(=O)CNC(=O)[C@@H](N)Cc1ccc(O)cc1)C(=O)N[C@@H](CCCN=C(N)N)C(=O)N[C@@H](CCCN=C(N)N)C(=O)N[C@@H](CCC(N)=O)C(=O)N[C@@H](Cc1ccccc1)C(=O)N[C@@H](CCCCN)C(=O)N[C@H](C(=O)N[C@H](C(=O)N[C@H](C(=O)O)[C@@H](C)O)C(C)C)C(C)C [Dynorphin B] stands at 1.67
